pIC50 overview
TARGET_UNDER_TEST: METTL3/14 (Homo sapiens)
Sequence (Q86U44 whole entry): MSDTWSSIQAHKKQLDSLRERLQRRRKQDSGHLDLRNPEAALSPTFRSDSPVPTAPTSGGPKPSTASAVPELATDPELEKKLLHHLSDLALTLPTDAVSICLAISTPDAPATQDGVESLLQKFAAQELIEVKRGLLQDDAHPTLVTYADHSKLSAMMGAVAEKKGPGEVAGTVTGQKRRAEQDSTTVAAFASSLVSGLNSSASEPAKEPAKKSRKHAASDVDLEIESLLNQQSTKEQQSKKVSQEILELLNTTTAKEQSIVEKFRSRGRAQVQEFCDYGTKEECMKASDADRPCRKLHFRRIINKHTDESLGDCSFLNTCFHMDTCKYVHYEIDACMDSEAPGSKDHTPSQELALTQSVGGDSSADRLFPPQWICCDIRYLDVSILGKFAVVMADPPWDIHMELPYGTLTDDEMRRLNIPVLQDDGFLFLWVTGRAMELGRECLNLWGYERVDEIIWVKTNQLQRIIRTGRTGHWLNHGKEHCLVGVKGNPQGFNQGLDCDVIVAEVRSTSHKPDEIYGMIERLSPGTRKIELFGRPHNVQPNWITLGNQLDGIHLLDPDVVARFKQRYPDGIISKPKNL
Sequence (Q9HCE5 whole entry partner): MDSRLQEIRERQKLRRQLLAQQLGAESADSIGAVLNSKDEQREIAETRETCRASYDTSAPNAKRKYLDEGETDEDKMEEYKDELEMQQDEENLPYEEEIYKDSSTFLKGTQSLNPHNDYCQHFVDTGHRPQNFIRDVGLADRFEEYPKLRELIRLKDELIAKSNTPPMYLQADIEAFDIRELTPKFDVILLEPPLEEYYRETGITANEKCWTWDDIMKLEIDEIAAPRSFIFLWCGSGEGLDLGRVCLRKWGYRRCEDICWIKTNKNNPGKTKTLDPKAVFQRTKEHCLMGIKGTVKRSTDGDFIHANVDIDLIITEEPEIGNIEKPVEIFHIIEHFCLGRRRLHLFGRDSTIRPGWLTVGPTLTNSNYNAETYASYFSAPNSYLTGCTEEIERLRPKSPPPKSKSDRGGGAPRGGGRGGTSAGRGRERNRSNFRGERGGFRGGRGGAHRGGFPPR
PROTOCOL: METTL3/14 methyltransferase activity assay (HTRF)
APPLIED_CONDITIONS: 10 concentrations, 3-fold dilution from 10 µM
pIC50: −log10 of the molar value.

| MOLECULE | pIC50 |
| --- | --- |
| O=C(NCc1cc2[nH]c(CNCC3CCC3)cc2s1)c1cc(=O)n2cc3c(cc2n1)OCCO3 [Example 31] | 7.00 to 8.00 |
| O=C(NCc1cc2[nH]c(CNCC34CC(F)(C3)C4)cc2cc1F)c1cc(=O)n2cc3c(cc2n1)OCO3 [Example 74] | > 8.00 |
| O=C(NCc1ccc2cc(CNCC3CCC3)[nH]c2c1)c1cn2nccc(N3CCOCC3)c2n1 [Example 8] | 6.00 to 7.00 |
| CC1(CNCc2cc3ccc(CNC(=O)c4cc(=O)n5cc6c(cc5n4)OCO6)cc3[nH]2)CC(F)(F)C1 [Example 53] | > 8.00 |
| O=C(NCc1cc2[nH]c(CNCC3CCC3)cc2s1)c1cc(=O)n2cc3c(cc2n1)OCO3 [Example 32] | 7.00 to 8.00 |
| O=C(NCc1ccc2cc(CNCC3CCC3)[nH]c2c1)c1cc(=O)n2cc3c(cc2n1)OC(F)(F)O3 [Example 30] | 7.00 to 8.00 |
| COc1ccc(CNc2nc(C(=O)NCc3ccc4cc(CNCC5CCC5)[nH]c4c3)cn3nccc23)cc1 [Example 14] | 7.00 to 8.00 |
| O=C(NCc1ccc2cc(CNCC3CCC3)[nH]c2c1)c1cnn2cccnc12 [Example 3] | 7.00 to 8.00 |
